TESTED_SYSTEM: mPAO (Mus musculus)
Construct: the full length cDNA of mpao was released by Nde I and Hind III treatment, and ligated into Nde I and Hind III sites of pET29c; made in house; host or cells: E. coli BL21 GOLD (DE3), plasmid pET-MPAO (pET29c)
TEST_DETAILS: Steady-state kinetic spectrophotometric assay of mPAO (H2O2 formation)
Type: biochemical, murine
EXPERIMENTAL_SETUP: in words

- MOLECULE: "CCNCCCNCCCNCCCNCC [N^1,N^11-diethyl-nor-Spm, N^1,N^11-bis[ethyl]norspermine]"
  substrate for mPAO (oxidation by mPAO): "very good substrates"
- MOLECULE: "CCNCCCNCCCCNCCCNCC [N^1,N^12-diethyl-Spm, N^1,N^12-bis[ethyl]spermine]"
  substrate for mPAO (oxidation by mPAO): "very good substrates"

* * *

TESTED_SYSTEM: mPAO (Mus musculus, UniProt Q8C0L6)
Construct: the full length cDNA of mpao was released by Nde I and Hind III treatment, and ligated into Nde I and Hind III sites of pET29c; made in house; host or cells: E. coli BL21 GOLD (DE3), plasmid pET-MPAO (pET29c)
Sequence (Q8C0L6 whole entry E184K/L285S/R416L/R417S/Q419R/E451A/V490I/S491G/V497A): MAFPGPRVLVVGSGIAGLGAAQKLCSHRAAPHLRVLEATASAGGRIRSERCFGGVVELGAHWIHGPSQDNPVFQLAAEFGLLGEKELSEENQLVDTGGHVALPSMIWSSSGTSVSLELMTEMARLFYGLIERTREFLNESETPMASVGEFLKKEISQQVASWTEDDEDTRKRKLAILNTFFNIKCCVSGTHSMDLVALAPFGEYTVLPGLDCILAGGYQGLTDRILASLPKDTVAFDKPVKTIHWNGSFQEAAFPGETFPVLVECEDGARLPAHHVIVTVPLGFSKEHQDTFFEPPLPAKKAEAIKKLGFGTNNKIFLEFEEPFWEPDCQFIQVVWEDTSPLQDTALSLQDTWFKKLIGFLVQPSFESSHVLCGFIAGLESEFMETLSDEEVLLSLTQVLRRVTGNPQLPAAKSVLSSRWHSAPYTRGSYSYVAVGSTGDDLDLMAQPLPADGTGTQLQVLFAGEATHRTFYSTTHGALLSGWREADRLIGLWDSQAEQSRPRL
TEST_DETAILS: Steady-state kinetic spectrophotometric assay of mPAO (H2O2 formation)
Assay type: biochemical, murine
EXPERIMENTAL_SETUP: apparent, inhibition of N^1-acetyl-Spm oxidation, average of four inhibitor concentrations; read-out: KI′ = KD
Decide using Ki alone. Strictly below 200 µM: met. Equal to or above 200 µM: not met.

- COMPOUND: "NCCCCCCCCCCNCCCN [N-(3-aminopropyl) 1,10 decanediamine, N-(3-Aminopropyl)-1,10-diaminodecane]"
  TESTED_SYSTEM: "mPAO (Mus musculus, UniProt Q8C0L6)"
  ASSIGNED_LABEL: "met"
- COMPOUND: "NCCCNCCCCNCCCN [Spm, spermine]"
  TESTED_SYSTEM: "mPAO (Mus musculus, UniProt Q8C0L6)"
  ASSIGNED_LABEL: "not met"
- COMPOUND: "CC(=O)NCCCCNCCCN [N^8-acetyl-Spd]"
  TESTED_SYSTEM: "mPAO (Mus musculus, UniProt Q8C0L6)"
  ASSIGNED_LABEL: "met"
- COMPOUND: "NCCCCNCCCN [Spd, spermidine]"
  TESTED_SYSTEM: "mPAO (Mus musculus, UniProt Q8C0L6)"
  ASSIGNED_LABEL: "met"

Consider now this further compound.
Does the reported Ki of NCCCCN [Put, putrescine] stay below 200 µM?
not met

* * *

Give KS′ for every item shown.
TESTED_SYSTEM: mPAO (Mus musculus)
Construct: the full length cDNA of mpao was released by Nde I and Hind III treatment, and ligated into Nde I and Hind III sites of pET29c; made in house; host or cells: E. coli BL21 GOLD (DE3), plasmid pET-MPAO (pET29c)
TEST_DETAILS: Steady-state kinetic spectrophotometric assay of mPAO (H2O2 formation)
Type: biochemical, murine
EXPERIMENTAL_SETUP: apparent value, air-saturated buffer pH 7.6, [O2] 237 μM
Numbers only, in µM.

Worked cases, KS′ given:
- MOLECULE: "NCc1ccccc1"
  KS′ [µM]: 0
- MOLECULE: "CC(=O)NCCCNCCCCNCCCN"
  KS′ [µM]: 1.78
- MOLECULE: "NCCCCN"
  KS′ [µM]: 0
- MOLECULE: "NCCCNCCCCNCCCN"
  KS′ [µM]: 716
- MOLECULE: "CCNCCCNCCCCNCCCNCC [N^1,N^12-diethyl-Spm, N^1,N^12-bis[ethyl]spermine]"
  KS′ [µM]: 150
- MOLECULE: "N=C(N)NCCCCCCCCCCNC(=N)N [synthalin, 1,10-bisguanidinodecane]"
  KS′ [µM]: 0

// for each molecule in input: emit KS′
1. NCCCCNCCCN
2. CC(=O)NCCCCNCCCN
3. CCNCCCNCCCNCCCNCC [N^1,N^11-diethyl-nor-Spm, N^1,N^11-bis[ethyl]norspermine]

[0, 0, 157]

* * *

TESTED_SYSTEM: mPAO (Mus musculus)
Construct: the full length cDNA of mpao was released by Nde I and Hind III treatment, and ligated into Nde I and Hind III sites of pET29c; made in house; host or cells: E. coli BL21 GOLD (DE3), plasmid pET-MPAO (pET29c)
TEST_DETAILS: Steady-state kinetic spectrophotometric assay of mPAO (H2O2 formation)
Type: biochemical, murine
EXPERIMENTAL_SETUP: in words
OUTCOME_MEASURE: inhibitor of mPAO (oxidation of N^1-acetyl-Spm)

- SMI: "NCCCNCCCCNCCCN"
  TESTED_SYSTEM: "mPAO (Mus musculus)"
  RECORDED_MEASUREMENT: "inhibitors"
- SMI: "NCc1ccccc1"
  TESTED_SYSTEM: "mPAO (Mus musculus)"
  RECORDED_MEASUREMENT: "not"
- SMI: "NCCCCNCCCN"
  TESTED_SYSTEM: "mPAO (Mus musculus)"
  RECORDED_MEASUREMENT: "inhibitors"
- SMI: "NCCCCN"
  TESTED_SYSTEM: "mPAO (Mus musculus)"
  RECORDED_MEASUREMENT: "inhibitors"

* * *

TESTED_SYSTEM: mPAO (Mus musculus)
Construct: the full length cDNA of mpao was released by Nde I and Hind III treatment, and ligated into Nde I and Hind III sites of pET29c; made in house; host or cells: E. coli BL21 GOLD (DE3), plasmid pET-MPAO (pET29c)
TEST_DETAILS: Steady-state kinetic spectrophotometric assay of mPAO (H2O2 formation)
Format: biochemical, murine
EXPERIMENTAL_SETUP: apparent value, air-saturated 50 mM KH2PO4/KOH buffer pH 7.6, [O2] 237 μM
Give kcat′ for every item shown.
Numbers only, in s⁻¹.

- MOLECULE: "NCCCCCCCCCCNCCCN"
  TESTED_SYSTEM: "mPAO (Mus musculus)"
  kcat′ (s⁻¹): 0

// for each molecule in input: emit kcat′
1. N=C(N)NCCCCCCCCCCNC(=N)N [synthalin, 1,10-bisguanidinodecane]
2. CCNCCCNCCCNCCCNCC [N^1,N^11-diethyl-nor-Spm, N^1,N^11-bis[ethyl]norspermine]
3. CC(=O)NCCCNCCCCNCCCN
4. NCc1ccccc1
5. CC(=O)NCCCCNCCCN
6. CCNCCCNCCCCNCCCNCC [N^1,N^12-diethyl-Spm, N^1,N^12-bis[ethyl]spermine]

1: 0; 2: 1.93; 3: 4.53; 4: 0; 5: 0; 6: 0.415

// for each molecule in input: emit kcat′
1. NCCCCNCCCN
2. NCCCCN

1: 0; 2: 0
